- System: HOP-92 NSCLC
- test: NCI-60 one-dose screen, 48 h
- condition_notes: 10 µM unless noted
Compounds without any hit were thinned out: in the full panel of roughly 83,000, 20% have a hit. Activity calls are given as the source filed them. The calls were made as follows: active = growth percent below 10; inactive = the rest.
Please answer using one outcome listed in active, inactive

Please review the following examples before continuing.
compound	category
COc1ccc(/C=c2\sc3n(c2=O)C2C(NN=3)N(C)C(=O)N2C)cc1 (centres undefined)	inactive
Clc1nc2ccccc2nc1CI	inactive
Nc1nn2cc(-c3ccc(Cl)s3)nc2c2ccccc12	inactive

Each compound tested received a call. Report the one for `COc1cc(CCn2nnc3c(Nc4ccc(N5CCOCC5)cc4)ncnc32)cc(OC)c1` .
inactive

Hey, what did the test say about `O=C1CCCCN1CCCCC#Cc1ccccc1C#Cc1ccccn1` ?
inactive

Give the logged outcome of this assay for the following compound: `COc1cc(C(=O)CCCl)ccc1O`
inactive

Fill in: this test's call for CCN1C(=O)N(CC)C2Nn3c(s/c(=C4\C(=O)N(C5CCCC5)c5ccccc54)c3=O)=NC21 (centres undefined) is ___
inactive

Test call for this compound, please: `CC(C)C[C@H](NC(=O)[C@@H](Cc1ccccc1)n1ccc(Nc2ccccc2)cc1=O)B(O)O`
active

Name the outcome recorded for `C=C1C(=O)O[C@H]2[C@H]1CC/C(Cn1cc(-c3ccsc3)nn1)=C\CC[C@@]1(C)O[C@@H]21` in the assay.
active

Hey, what did the test say about CC1Cc2c(N(C)C)ncnc2N(C)c2ccc(O)cc21 (centres undefined) ?
inactive

Could you please tell me the result logged for `CCC1=C[C@@H]2CN(C1)Cc1c([nH]c3ccccc13)[C@@](C(=O)OC)(c1cc3c(cc1OC)N(C=O)[C@H]1[C@@](O)(C(=O)OC)[C@H](OC(C)=O)[C@]4(CC)[C@@H]5C[C@@H]5CN5CC[C@]31[C@@H]54)C2` in this assay?
active

Status in this test for `COc1ccc(Cn2cc(COc3cc(/C=C/C(=O)c4cc(OC)c(OC)c(OC)c4)ccc3OC)nn2)cc1` ?
inactive

Per the records of this test, what outcome belongs to NC(C(=O)O)C(O)c1ccc(OCc2ccccc2)c(OCc2ccccc2)c1 (centres undefined) ?
inactive

How was Nc1nc(N)c2nc(CNc3ccc(C(=O)CC(CCC(=O)O)C(=O)O)cc3)cnc2n1 (centres undefined) classified in this test?
active

----------
- Test system: A498 renal
- test: NCI-60 one-dose screen, 48 h (100 = growth as untreated, 0 = no growth, -100 = all killed)
- condition_notes: 10 µM unless noted
Compounds without any hit were thinned out: in the full panel of roughly 83,000, 20% have a hit.
readout_name: growth (%)
Answer with a number only, understood to be in %.

Some compounds with recorded growth:
> print(dat)
                                   compound  test.target  readout.name  unit.text  meas.value
1  C=CCc1cc(Cl)cc2c(OC(C)=O)c(C(C)=O)c(-c3ccccc3)nc12   A498 renal        growth          %         110
2                CC(=O)OC[Si](C)(C)c1ccccc1   A498 renal        growth          %         103

Recorded result, CC(=O)Nc1ccc(S(=O)(=O)NC(CCC(=O)Nc2ccc(Cl)cc2)C(=O)O)cc1 (stereo not given) , growth: 58.3

compound `COc1ccc(-c2nc(-c3nc4ccc(F)cc4[nH]3)cc3c2[nH]c2ccccc23)cc1` , growth observed: 26.4

Entry under test: `O=C1CCC/C=C\C[C@H]2C=CC(=O)/C2=C/C[C@H](C/C=C\CC(F)(F)F)O1` . Its growth was -75.2

----------
- System: DU-145 prostate
- test: NCI-60 one-dose screen, 48 h (100 = growth as untreated, 0 = no growth, -100 = all killed)
- condition_notes: 10 µM unless noted
- Experimental: Cells are grown in 96 well plates and exposed to the test compound for 48 hours. Compounds are tested at a single concentration, which is 10^-5 M for most compounds. The reported endpoint is percent growth (GI% or GIPRCNT), where numbers from 0 - 100% represent growth inhibition, and numbers from -100% - 0 represent cell death. For example, a value of 40 represents 60% growth inhibition. A value of 0 means no net growth occurred over the course of the experiment. […]
Compounds without any hit were thinned out: in the full panel of roughly 83,000, 20% have a hit.
readout_name: growth (%)
The reply should be a number in %, with the unit left off.

> print(dat)
                                   compound  meas.value
1  CCCCCCCN(CCCCCCC)C(=N)c1ccc(OC)c2ccccc12       -96.4

For `COc1ccc(NC(=O)c2cc3ccccc3nc2Nc2cc(OC)c(OC)c(OC)c2)cc1` the compound record lists growth as 66.3

growth in this record for `COc1cccc(/C=C2\SC(N3CCN(c4ccccn4)CC3)=NC2=O)c1` : 101

# compound `N#Cc1ncc(-c2ccc(F)c(F)c2F)c(NC2CCCCCC2)n1` ; its growth = 95.8

growth for CCN1C(=O)N(CC)C2C1NN=c1s/c(=C\c3cccc(F)c3)c(=O)n12 (stereo not given) is 5.59

----------
- System: TK-10 renal
- test: NCI-60 one-dose screen, 48 h (100 = growth as untreated, 0 = no growth, -100 = all killed)
- condition_notes: 10 µM unless noted
About 83,000 compounds went through this panel and 20% of them were active in at least one assay; those are over-represented in the sample as a whole.
Catalogue of growth values
# value in %; strip the unit string

Take a look at these entries with their results.
> print(dat)
                                   molecule  unit.text  meas.value
1  O=C(O)c1ccc(-n2cc(CNc3ccc(C(F)(F)F)cc3)c(-c3ccccc3)n2)cc1          %         110
2  CN=S(=O)(NC(=O)c1ccc(Cl)cc1Cl)c1ccc(Br)s1 (stereo not given)          %         106

Please look at the following molecule next.
Lab note: measured growth of `COc1cc(Cn2c(SCC(=O)Nc3cc(OC)c(OC)c(OC)c3)nc3ccccc3c2=O)cc(OC)c1OC` was 67.9

----------
- System: CCRF-CEM leukemia
- test: NCI-60 one-dose screen, 48 h
- condition_notes: 10 µM unless noted
About 83,000 compounds went through this panel and 20% of them were active in at least one assay; those are over-represented in the sample as a whole. Activity calls are given as the source filed them. The calls were made as follows: active = growth percent below 10; inactive = the rest.
Lab note: assign the record to one of 1 for active, -1 for inactive

Here's what some known entries look like.
> print(dat)
                                   compound  category
1         NCCSC(c1ccccc1)(c1ccccc1)c1ccccc1         1
2  COC(=O)c1ccc2nc(-c3cc4ccccc4n3C)n(CCCCOc3cc4c(cc3OC)C(=O)N3CCC[C@H]3C=N4)c2c1         1
3                             c1ccn2nnnc2c1        -1

Each molecule tested received a call. Report the one for `CCOC(=O)CC/C(C)=N\Nc1ccc([N+](=O)[O-])cc1` .
-1

Tell me the recorded outcome of this test for `NS(=O)(=O)c1ccc(NCC(=O)Nc2ccc(-c3nc4ccccc4s3)cc2)cc1` .
1

Outcome logged for `COc1cccc(NC(=O)Cn2cc3c(=O)oc4ccccc4c3n2)c1` in this assay:
-1

Recorded test outcome, item `Cc1ccc(Nc2ncnc3c2sc2ncccc23)cc1`
-1

For this molecule, state the assay outcome: `Cc1ccccc1C(=O)c1ccccc1C(=O)O`
-1

----------
- Tested on: OVCAR-3 ovarian
- test: NCI-60 one-dose screen, 48 h (100 = growth as untreated, 0 = no growth, -100 = all killed)
- condition_notes: 10 µM unless noted
Compounds without any hit were thinned out: in the full panel of roughly 83,000, 20% have a hit.
Field: label. Allowed values: TRUE (growth < 40%) or FALSE (growth >= 40%).

> print(dat)
                                   molecule  category
1     Cc1ccc2nc(SCn3nnc4ccccc4c3=O)[nH]c2c1     FALSE
2  O=C(O)C(Cc1ccccc1)N1C(=O)/C(=C/C(Cl)=C/c2ccc([N+](=O)[O-])cc2)SC1=S (stereo not given)      TRUE
3  Cc1cc2c(c(=O)o1)C(c1ccc(OC(=O)N3CCOCC3)cc1)C(C#N)=C(N)O2 (stereo not given)     FALSE
4  CC(C)C[C@H](NC(=O)[C@H](Cc1ccccc1)n1ccc(N2CCCCC2)cc1=O)B(O)O      TRUE
5  CC1Cc2c(N(C)C)ncnc2N(C)c2ccc(O)cc21 (stereo not given)     FALSE

Please indicate whether the reported growth of `O=S(=O)(O)CCl` is strictly below 40%.
FALSE

Dear reviewer, please state whether `COc1ccc2c(c1)NC(=O)CN2c1nc(C)nc2ccccc12` has growth strictly beneath 40%.
TRUE

Decide: growth of `COc1cccc2nc(Nc3ccc(NC(=O)c4ccc5ncccc5c4)cc3)ccc12` strictly below 40%?
FALSE

Quick check: does O=C(COc1ccccc1)N1N=C(c2ccc(Cl)cc2)CC1c1c[nH]c2ccccc12 (stereo not given) have growth under 40%?
FALSE
